Data credit: PubChem BioAssay (NCI)

Recorded TGI, one value per entry.
# System: SK-OV-3 ovarian
# method: NCI tumour cell line growth inhibition, 48 h
observation-type: TGI

>>> print(df.to_string())
                                    compound  measured_result
 0  Cc1c(Sc2ccccc2)[n+](=O)c2cc(Cl)c(Cl)cc2n1[O-]         > 100 µM
 1            N#Cc1nc(COCCOCc2ccc(F)cc2)oc1N         > 100 µM
 2  Cc1nc(Nc2nc3ccccc3o2)nc(-c2cccc([N+](=O)[O-])c2)c1C(=O)Nc1ccc(F)c(Cl)c1         > 100 µM
 3  CC(C)C(NCc1c(O)ccc2c(-c3ccccc3)cc(=O)oc12)C(=O)O (stereo not drawn)         > 100 µM
 4  CCCC[C@H]1CCN2C[C@@H](O)[C@@H](O)[C@H]2[C@@H]1O         > 100 µM
 5  O=C1CC(c2ccc(Cl)cc2)Oc2ccccc21 (stereo not drawn)            61 µM
 6  COc1cc2c3c(n(CCCN=[N+]=[N-])c(=O)c2cc1OC)-c1ccc(N(C)C)cc1C3=O         > 100 µM
 7  CCC(Oc1ccc(OC)c2ccccc(=O)c12)C(=O)O (stereo not drawn)         > 100 µM
 8  C[C@H]1C(=O)CC[C@]2(C)CCC(C(C)(C)O)CC12O (stereo partly drawn)         > 100 µM
 9  CC1OC(OC2C(Oc3cc(O)c4c(c3)O[C@H](c3ccc(O)cc3)CC4=O)OC(CO)C(O)C2O)C(O)C(O)C1O (stereo partly drawn)         > 100 µM
10  Cc1c(C)c(S(=O)(=O)N(CCCCCON)OCCCN)c(C)c2c1OC(C)(C)CC2          28.1 µM
11  O=C(/C=C1/Nc2ccc([N+](=O)[O-])cc2NC1O)c1cccc([N+](=O)[O-])c1 (stereo not drawn)          57.2 µM
12  O=C1c2ccccc2-c2c1c(-c1cccc(Br)c1)nc1ccc3ccccc3c21         > 100 µM
13  Cc1cc(OCc2nnc3n2N=C(c2ccc(Cl)cc2Cl)CS3)ccc1Cl         > 100 µM
14                       CCc1n[nH]c(=O)n1CCO         > 100 µM
15               CNCCC=C1c2ccccc2CCc2ccccc21          25.2 µM
16               CN1CC(=O)N(C)c2nc[nH]c2C1=O         > 100 µM
17  C/C=C(\C)C(=O)N[C@H]1C(O)C[C@]2(C)C3CC[C@@]4(C)C(CC[C@@H]4C(C)N(C)C)C3CCC2C1O (stereo partly drawn)          42.4 µM
